Test system: TNFα secretion in RAW 264.7 macrophages
test protocol: TNFα release assay in RAW 264.7 macrophages stimulated with LPS
Format: cell-based, mouse
condition: RAW264.7; RAW 264.7 macrophages, 10 ng/ml LPS, mouse TNFα ELISA; read-out: TNFα Secretion, IC50 μM
attribute measured: IC50 (µM)

In [3]: df
Out[3]:
                                   compound   val
0  CC/C=C\C/C=C\C/C=C\C/C=C\C/C=C\C/C=C\CCC(=O)Oc1ccccc1C(=O)O  69.2

(1) CC/C=C\C/C=C\C/C=C\C/C=C\C/C=C\C/C=C\CCC(=O)NCCNC(=O)c1ccccc1O
(2) CC/C=C\C/C=C\C/C=C\C/C=C\C/C=C\C/C=C\CCC(=O)NC(CC(C)C)C(=O)Nc1ccc(O)c(C(=O)O)c1 (centres unmarked)
[ask] Which of these two has the smaller recorded IC50: 1 or 2 ? Indicate which entry you chose by stating its label.
[reply] 1
(1: 15 µM, 2: 65.3 µM)
